# Assay comment: ATG_EGR_CIS: Attagene CIS-FACTORIAL HepG2 Assay for human Early Growth Response 1 (EGR1) (AID 2282938)
# Test parameters: HepG2 Attagene CIS-FACTORIAL EGR reporter mRNA; actives raise or lower the signal
Calls of active or inactive are those of the source. Rule for the calls: active = hit-call score of the fitted dose curve at least 0.9, where 1 is the maximum; inactive = score below 0.9.
Assign a class; possible classes are yes for active, no for inactive

| Compound | Group label |
| --- | --- |
| CC(=O)OCCOCCOCCOC(C)=O | no |
| CC(C)(C)c1cc(O)c(C(C)(C)C)cc1O | yes |
| Cc1cccc([N+](=O)[O-])c1C | no |
| Cc1nc(-c2ccc3c(c2)CCN(CCC2CCC(NC(=O)/C=C/c4ccc(F)cc4)CC2)CC3)no1 (stereo not given) | no |
| COc1cc(-c2nc(NC(=O)c3cc4cc(C)cc(C)c4n3CC(=O)O)sc2CCC2CCCCC2)c(OC)cc1Cl | yes |

Status in this test for CC1(C)NC(=O)NC1=O ?
no

Status in this test for CCCCc1ccc2c(n1)[C@@H](c1ccc(OC)cc1C[C@H](C)C(=O)O)[C@H](C(=O)O)[C@H]2c1ccc2c(c1)OCO2 ?
no

Status in this test for CC(CO)OC(C)CO (stereo not given) (tested in a mixture with another compound) ?
no

Status in this test for Cc1ccc(C)c(C)c1 ?
no

Status in this test for Nc1ccc2c(c1)C(=O)c1ccccc1C2=O ?
no

Status in this test for CCCCC(CC)COC(=O)CC(C(=O)OCC(CC)CCCC)S(=O)(=O)O (stereo not given) ?
no

Status in this test for CC(C)c1ccc(C(=O)N=C(N)N)cc1S(C)(=O)=O ?
no

Status in this test for COc1ccc2c(c1)c(CC(=O)O)c(C)n2C(=O)c1ccc(Cl)cc1 ?
no

Status in this test for CCCCCCCCCCCCCO ?
no

Status in this test for O=C(O)Cc1ccccc1Nc1c(Cl)cccc1Cl ?
no

Status in this test for O=C(N[C@@H](Cc1ccccc1)[C@@H](O)C(=O)N1C[C@@H](O)[C@@H](O)C1)c1cc2cc(Cl)ccc2[nH]1 ?
no

Status in this test for CCCCCCOCCO ?
no
